Test system: Thoracic aorta
method description: Vasodilatory activity in Wistar rat thoracic aortic rings assessed as inhibition of noradrenaline-induced contraction
Type: functional, tissue-based
readout: IC50
Entry format: amount then unit.

The molecule listed as O=C(N/N=C/c1cccs1)c1ccc2c(c1)OCO2 has a reported IC50 of 74 µM

====

System: HL-60
method description: Cytotoxicity against human HL60 cells by MTT assay
Assay type: functional, cell-based
readout: pIC50
The read-out pIC50 is expressed as -log10 of concentration in moles per litre.

# pIC50 measured on HL-60 for item COc1cc(C(=O)N(C)/N=C/c2ccccc2)cc(OC)c1OC = 7.52

FYI, the data here is from ChEMBL document CHEMBL4229438.
